- Tested on: CEM cells HIV-1 protection, formazan growth assay
- Assay protocol: NCI AIDS Antiviral Assay
Calls of active or inactive are those of the source.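 Rule for the calls: active = compounds giving half or more protection of infected cells from virus-caused growth loss, again on retest; inactive = the rest.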
Outcome codes: 1 (active), -1 (inactive)

| Molecule | Study system | Class |
| --- | --- | --- |
| COc1cc2c(cc1OC)C1C=NC(C(=O)O)(C2)c2ccccc21 (configuration not stated) | CEM cells HIV-1 protection, formazan growth assay | -1 |
| CC(=O)N1CN2C(=O)CCC2c2cc(C)ccc21 (configuration not stated) | CEM cells HIV-1 protection, formazan growth assay | -1 |
| CCOP(=O)(OCC)C1CCCOC1=O (configuration not stated) | CEM cells HIV-1 protection, formazan growth assay | -1 |
| Cc1cn(C2CC(N=[N+]=[N-])C(COC(=O)C3CNC(=O)N3)O2)c(=O)[nH]c1=O (configuration not stated) | CEM cells HIV-1 protection, formazan growth assay | 1 |
| COC(=O)C1=CC2C(=O)OC1C1C(=O)NC(=O)C21 (configuration not stated) | CEM cells HIV-1 protection, formazan growth assay | -1 |
| COc1ccc(/C=N/N=C(N)N)c(C(=O)O)c1OC | CEM cells HIV-1 protection, formazan growth assay | -1 |
| COC1=CC(=O)c2nc(C)ccc2C1=O | CEM cells HIV-1 protection, formazan growth assay | -1 |
| COC(CNC(=O)CNC(=O)c1ccc(C(F)(F)F)cc1)OC | CEM cells HIV-1 protection, formazan growth assay | -1 |
| COC(=O)C1=C(CO)C2C=CC1C2 (configuration not stated) | CEM cells HIV-1 protection, formazan growth assay | -1 |
| CC(C)(C)c1nc2c(o1)C(=Nc1ccccc1)c1ccccc1C2=O | CEM cells HIV-1 protection, formazan growth assay | -1 |
| Cc1cccc(N=Nc2c(C)nn(C(=O)c3ccccc3Cl)c2C)c1 | CEM cells HIV-1 protection, formazan growth assay | -1 |
| O=C(NC1CCCC1=O)c1ccccc1 (configuration not stated) | CEM cells HIV-1 protection, formazan growth assay | -1 |

* * *

- Tested on: CEM cells HIV-1 protection, formazan growth assay
- Assay protocol: NCI AIDS Antiviral Assay;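 active = compounds giving half or more protection of infected cells from virus-caused growth loss, again on retest; inactive = the rest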
- Method: The ability of compounds to protect human CEM cells from HIV-1 infection is measured as a screen for new compounds capable of inhibiting the HIV virus. Five concentrations of drug were tested on uninfected and infected cells and cell growth was measured using a soluble formazan assay. […] Compounds that provided at least 50% protection were retested. Compounds that provided at least 50% protection on retest were listed as moderately active. […]
Labels: t = active, f = inactive

| Compound | Class |
| --- | --- |
| O=C(Nc1ccc(F)c(Cl)c1)Nc1cc(Cl)ccc1SSc1ccc(Cl)cc1NC(=O)Nc1ccc(F)c(Cl)c1 | f |
| O=C1C=CC2O[C@H](c3ccccc3)[C@@H](O)C2O1 (stereo partly drawn) | f |
| CCOP(=O)(CCn1cc(C)c(=O)[nH]c1=O)OCC | f |
| O=C(Nc1ccc(Cl)c(Cl)c1)C(=O)C(C(=O)c1ccccc1F)C1OC(=O)c2ccccc21 (stereo not drawn) | f |
| Nc1nc2c(ncn2C2CCC(CO)OC2)c(=O)[nH]1 (stereo not drawn) | f |
| CC1(C)CC(=O)C2=C(C1)OC(N)=C(c1nc(-c3ccccc3)cs1)C2c1ccc(Br)cc1 (stereo not drawn) | f |
| COc1cc(COC(=O)N(CC(=O)O)c2ccccc2)c([N+](=O)[O-])cc1OC | f |
| Cc1c(C2CCSc3ccccc3N2)sc2ccccc12 (stereo not drawn) | f |
| COC(=O)NC1=Nc2ccccc2-c2ccccc2N1 | f |
| CN1C(=O)N(C)[C@@H]2CC(=O)c3ccc(C(F)(F)F)cc3N2C1=O | f |
| CCOC(=O)C(NCc1cccc(C(F)(F)F)c1)(NC(=O)CC)C(F)(F)F (stereo not drawn) | f |
| COC(=O)CCCCC=C(c1cc(Cl)c(OC)c(C(=O)OC)c1)c1cc(Cl)c(OC)c(C(=O)OC)c1 | t |
| CC1=C(C(=O)CC(=O)C(=O)Nc2cccc(C)c2C)Sc2ccccc2N1 | f |
| CCCCCCC(c1ccc(O)c(C(=O)O)c1)c1ccc(O)c(C(=O)O)c1 | f |
| CCOC(=O)Nc1cc2c(c(N)n1)N=C(CN(C)c1ccccc1)CN2 | f |
| CSCc1nc2ccccc2c(C)[n+]1[O-] | f |
| NC(N)=N/N=C(\c1nc2ccc([N+](=O)[O-])cc2[nH]c1=O)C(O)c1ccc([N+](=O)[O-])cc1 (stereo not drawn) | f |
| CC1=NNC(=O)C1C1CC(c2c[nH]c3ccccc23)=NN(C(N)=O)C1=O (stereo not drawn) | f |
| C[C@]12CC[C@@H]3c4cc(OCC(F)(F)F)c(O)cc4/C(=N/O)C[C@H]3[C@@H]1CC[C@@H]2O | f |
| O=C(Nc1ccc(Cl)cc1)Nc1cccc2nsnc12 | f |
| CNC(=O)CNC(=O)CCC(=O)N(C)C | f |
| N#CC12CCCC(=O)N1c1ccccc1S2 (stereo not drawn) | f |
| C[N+]1(C)C/C(=C\C=C\c2ccccc2)C(=O)/C(=C/C=C/c2ccccc2)C1 | f |
| O=C(/C=C/c1cc2ccccc2o1)N1CCN(c2ccccn2)CC1 | f |
| CCOC(=O)Nc1cc2c(c(N)n1)N=C(c1ccc3ccccc3c1)CN2 | f |
| CC(C(=O)NCCNC(=O)CCCC(=O)N(C)O)C(=O)NCCNC(=O)CCCC(=O)N(C)O | f |
| CC(C)CCC[C@@H](C)C1CCC2[C@@H]3CC(OS(=O)(=O)O)C4C[C@@H](OC5OC(CO)C(O)C(O)C5O)CC[C@]4(C)C3CC[C@@]21C (stereo partly drawn) | f |
| O=c1cc(O)c2ccccc2[nH]1 | f |
| NS(=O)(=O)c1nnc(NS(=O)(=O)c2ccccc2C(=O)O)s1 | f |
| O=[N+]([O-])c1ccc2c(c1)C(N1CCN(CCO)CC1)Cc1ccc(F)cc1S2 (stereo not drawn) | f |
| CCCCc1ccc(C2=C(O)C(=O)C(c3ccc(CCCC)cc3)=C(O)C2=O)cc1 | f |
| N#Cc1[nH]c(=O)n(-c2cccc3ccccc23)c1N | f |
| CCCCCCOC(=O)Nc1nnc(SSC2=NN=CC2NC(=O)OCCCCCC)s1 (stereo not drawn) | f |
| CC1=NN2C(c3ccc([N+](=O)[O-])cc3)=CSC2=NC(C)(C)C1 | f |
| C=CCCCN1CCCCC1=S | f |
| O=C(C1OC1c1ccc(O)cc1)C12CC3CC(CC(C3)C1)C2 (stereo not drawn) | f |
| CC(C)(C)OC(=O)NS(=O)(=O)Nc1ccccc1 | f |
| Cn1c(C(O)(Cc2ccccn2)Cc2ccccn2)cc2ccccc21 | f |
| C[N+](C)=c1ccc2nc3c(ccc4ccccc43)oc-2c1 | f |
| Cn1c(=O)n(C2(C)C[Se]C2)c2ccccc21 | f |
| O=C(O)CC(c1ccccc1)c1ccccc1 | f |
| CCCCc1c2c(nc3c1CCc1cc4cc5c(nc4nc1-3)-c1nc3c(c(CCCC)c1CC5)CCCC3)CCCC2 | f |
| Cc1nc2nn(Cc3ccccc3)cc2c(=O)o1 | f |
